For each record, write down the corresponding pKd.
target: T1, low-density lipoprotein receptor-related protein 1 (LRP-1) (UniProt Q07954 20-4544); test: SPR; BIAcore T200; LRP-1 immobilised on a CM5 chip by amine coupling (3000 RU); 25 °C; 150 mM NaCl, 10 mM CaCl2, 50 mM Tris-HCl, 0.01% Tween-20, pH 7.5; 30 μl/min; ligands or pre-formed complexes injected; one-site binding model; triplicate; settings: both partners purified
T1 construct: low-density lipoprotein receptor-related protein 1 (LRP-1), bought from Biomac; source: bought: Biomac (Leipzig, Germany)
T1 sequence (Q07954 20-4544): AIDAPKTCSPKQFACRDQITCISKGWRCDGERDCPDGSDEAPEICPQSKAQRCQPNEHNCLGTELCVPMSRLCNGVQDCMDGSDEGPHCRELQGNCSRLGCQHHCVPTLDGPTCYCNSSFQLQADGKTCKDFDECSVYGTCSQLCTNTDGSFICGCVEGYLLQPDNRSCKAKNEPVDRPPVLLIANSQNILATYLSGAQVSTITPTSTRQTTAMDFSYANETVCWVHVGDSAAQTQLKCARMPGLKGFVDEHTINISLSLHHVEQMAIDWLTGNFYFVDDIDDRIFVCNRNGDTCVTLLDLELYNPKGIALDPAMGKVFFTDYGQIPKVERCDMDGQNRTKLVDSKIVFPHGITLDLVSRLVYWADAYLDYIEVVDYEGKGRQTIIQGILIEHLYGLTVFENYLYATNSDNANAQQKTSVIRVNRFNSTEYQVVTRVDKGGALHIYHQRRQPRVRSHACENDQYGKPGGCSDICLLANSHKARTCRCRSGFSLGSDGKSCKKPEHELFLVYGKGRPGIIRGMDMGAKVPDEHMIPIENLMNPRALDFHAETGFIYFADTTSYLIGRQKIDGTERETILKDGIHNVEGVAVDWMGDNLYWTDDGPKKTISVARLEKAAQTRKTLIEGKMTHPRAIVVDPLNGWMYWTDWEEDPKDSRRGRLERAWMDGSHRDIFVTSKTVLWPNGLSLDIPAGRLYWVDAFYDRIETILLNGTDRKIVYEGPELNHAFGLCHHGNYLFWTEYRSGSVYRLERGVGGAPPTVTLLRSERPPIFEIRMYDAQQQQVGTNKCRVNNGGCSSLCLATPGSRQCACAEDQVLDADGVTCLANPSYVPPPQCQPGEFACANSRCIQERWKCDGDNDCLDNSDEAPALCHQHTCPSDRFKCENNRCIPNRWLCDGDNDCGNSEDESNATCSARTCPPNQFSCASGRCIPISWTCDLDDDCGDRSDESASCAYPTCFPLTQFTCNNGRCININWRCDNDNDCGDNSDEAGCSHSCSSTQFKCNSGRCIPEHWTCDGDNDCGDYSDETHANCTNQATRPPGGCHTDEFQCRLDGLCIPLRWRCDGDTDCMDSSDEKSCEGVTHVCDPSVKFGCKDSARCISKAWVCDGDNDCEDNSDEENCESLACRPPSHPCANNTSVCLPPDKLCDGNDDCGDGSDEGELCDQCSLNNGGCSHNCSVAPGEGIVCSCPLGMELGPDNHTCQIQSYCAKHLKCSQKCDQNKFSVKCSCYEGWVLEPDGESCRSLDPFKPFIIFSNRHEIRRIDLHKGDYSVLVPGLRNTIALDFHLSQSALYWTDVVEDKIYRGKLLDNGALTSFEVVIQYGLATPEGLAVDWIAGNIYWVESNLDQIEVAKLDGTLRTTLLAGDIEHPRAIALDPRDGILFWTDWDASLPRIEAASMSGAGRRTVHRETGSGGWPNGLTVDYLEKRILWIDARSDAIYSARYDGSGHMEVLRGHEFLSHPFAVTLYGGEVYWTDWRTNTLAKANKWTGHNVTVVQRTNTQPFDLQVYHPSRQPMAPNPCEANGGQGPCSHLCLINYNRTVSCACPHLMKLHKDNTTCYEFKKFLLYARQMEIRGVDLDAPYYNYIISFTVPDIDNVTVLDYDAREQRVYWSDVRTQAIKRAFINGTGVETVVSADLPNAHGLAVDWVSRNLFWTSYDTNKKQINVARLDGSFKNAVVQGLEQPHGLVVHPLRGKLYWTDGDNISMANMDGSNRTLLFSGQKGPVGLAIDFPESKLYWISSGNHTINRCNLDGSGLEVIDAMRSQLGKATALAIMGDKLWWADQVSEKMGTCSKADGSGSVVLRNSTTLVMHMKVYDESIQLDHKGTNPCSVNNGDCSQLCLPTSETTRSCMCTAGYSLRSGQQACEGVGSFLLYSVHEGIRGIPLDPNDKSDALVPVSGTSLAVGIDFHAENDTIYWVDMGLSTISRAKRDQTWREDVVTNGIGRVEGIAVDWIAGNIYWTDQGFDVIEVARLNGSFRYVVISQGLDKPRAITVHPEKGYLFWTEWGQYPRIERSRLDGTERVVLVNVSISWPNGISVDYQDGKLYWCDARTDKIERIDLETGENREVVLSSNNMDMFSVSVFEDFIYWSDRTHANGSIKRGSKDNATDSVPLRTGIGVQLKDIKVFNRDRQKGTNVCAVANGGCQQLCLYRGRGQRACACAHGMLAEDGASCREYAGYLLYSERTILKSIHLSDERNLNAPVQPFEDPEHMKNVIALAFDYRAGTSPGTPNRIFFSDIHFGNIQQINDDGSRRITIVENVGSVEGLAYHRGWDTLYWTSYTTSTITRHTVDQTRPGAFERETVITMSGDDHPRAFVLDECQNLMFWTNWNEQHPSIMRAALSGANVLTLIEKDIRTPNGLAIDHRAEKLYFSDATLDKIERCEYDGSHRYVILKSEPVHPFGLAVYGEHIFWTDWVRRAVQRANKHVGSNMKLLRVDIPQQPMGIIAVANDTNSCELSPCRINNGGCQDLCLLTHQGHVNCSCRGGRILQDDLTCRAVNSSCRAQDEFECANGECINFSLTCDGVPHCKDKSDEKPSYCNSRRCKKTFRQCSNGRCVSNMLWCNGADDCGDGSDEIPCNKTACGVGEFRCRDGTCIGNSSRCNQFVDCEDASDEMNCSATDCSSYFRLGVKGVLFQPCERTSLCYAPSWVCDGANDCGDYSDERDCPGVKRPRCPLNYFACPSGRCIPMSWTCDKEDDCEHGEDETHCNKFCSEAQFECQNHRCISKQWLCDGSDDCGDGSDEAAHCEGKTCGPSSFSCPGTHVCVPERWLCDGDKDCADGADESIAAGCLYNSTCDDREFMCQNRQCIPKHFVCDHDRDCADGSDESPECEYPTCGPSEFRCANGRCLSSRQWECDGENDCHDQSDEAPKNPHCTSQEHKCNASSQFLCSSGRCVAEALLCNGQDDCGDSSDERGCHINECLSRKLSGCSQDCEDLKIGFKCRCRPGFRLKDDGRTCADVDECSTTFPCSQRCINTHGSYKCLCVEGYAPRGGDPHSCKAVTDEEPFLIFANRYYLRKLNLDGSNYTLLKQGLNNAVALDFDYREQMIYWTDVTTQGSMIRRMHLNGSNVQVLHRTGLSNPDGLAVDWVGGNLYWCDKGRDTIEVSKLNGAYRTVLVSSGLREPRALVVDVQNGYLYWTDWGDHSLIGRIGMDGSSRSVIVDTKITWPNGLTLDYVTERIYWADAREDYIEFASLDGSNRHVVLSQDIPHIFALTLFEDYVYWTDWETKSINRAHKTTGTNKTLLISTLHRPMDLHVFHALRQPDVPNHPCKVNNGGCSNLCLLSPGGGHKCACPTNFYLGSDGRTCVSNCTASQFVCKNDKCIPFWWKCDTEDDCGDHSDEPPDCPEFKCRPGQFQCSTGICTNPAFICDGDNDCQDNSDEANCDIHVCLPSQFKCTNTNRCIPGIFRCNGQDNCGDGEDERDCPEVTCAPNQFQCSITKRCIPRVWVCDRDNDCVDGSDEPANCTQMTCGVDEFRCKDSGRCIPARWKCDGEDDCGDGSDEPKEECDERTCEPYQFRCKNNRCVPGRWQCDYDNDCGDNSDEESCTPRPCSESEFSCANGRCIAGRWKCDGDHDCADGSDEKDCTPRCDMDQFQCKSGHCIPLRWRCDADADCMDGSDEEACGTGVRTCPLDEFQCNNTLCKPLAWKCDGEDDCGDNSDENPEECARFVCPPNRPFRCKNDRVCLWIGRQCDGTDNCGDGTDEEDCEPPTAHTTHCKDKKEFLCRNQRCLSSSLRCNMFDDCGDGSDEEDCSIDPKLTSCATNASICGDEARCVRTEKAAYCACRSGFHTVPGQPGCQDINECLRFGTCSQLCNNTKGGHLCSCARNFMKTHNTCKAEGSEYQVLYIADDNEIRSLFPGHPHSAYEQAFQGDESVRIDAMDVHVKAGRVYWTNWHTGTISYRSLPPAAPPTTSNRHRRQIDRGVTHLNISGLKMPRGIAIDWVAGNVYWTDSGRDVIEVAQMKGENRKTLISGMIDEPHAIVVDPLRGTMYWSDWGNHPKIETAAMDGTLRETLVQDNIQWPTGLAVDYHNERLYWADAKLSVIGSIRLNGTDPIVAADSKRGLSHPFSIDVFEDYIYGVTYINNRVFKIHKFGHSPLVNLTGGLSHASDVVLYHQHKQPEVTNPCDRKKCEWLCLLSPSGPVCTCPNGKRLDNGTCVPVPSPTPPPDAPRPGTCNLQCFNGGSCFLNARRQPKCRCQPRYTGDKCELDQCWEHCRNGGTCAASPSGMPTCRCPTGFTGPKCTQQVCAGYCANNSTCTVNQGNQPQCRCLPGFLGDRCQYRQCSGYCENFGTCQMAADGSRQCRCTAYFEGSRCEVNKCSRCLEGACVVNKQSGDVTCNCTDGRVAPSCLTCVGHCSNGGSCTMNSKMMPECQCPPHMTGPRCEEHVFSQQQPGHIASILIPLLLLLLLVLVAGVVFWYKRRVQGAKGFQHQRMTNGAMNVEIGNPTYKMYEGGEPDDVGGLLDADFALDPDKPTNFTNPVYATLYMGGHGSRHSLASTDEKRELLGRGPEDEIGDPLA
As a rule, pKd stands for the negative log10 of the concentration, concentration in M.

Quick check: pKd of MMP-1ΔC/TIMP-3 complex (complex, catalytic domain of human MMP-1; pro-domain removed with APMA; as m8; as m3) chain 1: FVLTEGNPRWEQTHLTYRIENYTPDLPRADVDHAIEKAFQLWSNVTPLTFTKVSEGQADIMISFVRGDHRDNSPFDGPGGNLAHAFQPGPGIGGDAHFDEDERWTNNFREYNLHRVAAHELGHSLGLSHSTDIGALMYPSYTFSGDVQLAQDDIDGIQAIYGRSQNPVQP chain 2: CTCSPSHPQDAFCNSDIVIRAKVVGKKLVKEGPFGTLVYTIKQMKMYRGFTKMPHVQYIHTEASESLCGLKLEVNKYQYLLTGRVYDGKMYTGLCNFVERWDQLTLSQRKGLNYRYHLGCNCKIKSCYYLPCFVTSKNECLWTDMLSNFGYPGYQSKHYACIRQKGGYCSWYRGWAPPDKSIINATDP ?
8.19

Also need Receptor-associated protein (RAP), recombinant His-tagged (natural protein, UniProt P30533 35-357, looked up) YSREKNQPKPSPKRESGEEFRMEKLNQLWEKAQRLHLPPVRLAELHADLKIQERDELAWKKLKLDGLDEDGEKEARLIRNLNVILAKYGLDGKKDARQVTSNSLSGTQEDGLDDPRLEKLWHKAKTSGKFSGEELDKLWREFLHHKEKVHEYNVLLETLSRTEEIHENVISPSDLSDIKGSVLHSRHTELKEKLRSINQGLDRLRRVSHQGYSTEAEFEEPRVIDLWDLAQSANLTDKELEAFREELKHFEAKIEKHNHYQKQLEIAHEKLRHAESVGDGERVSRSREKHALLEGRTKELGYTVKKHLQDLSGRISRARHNEL , thanks.
9.22

Also need FLAG-tagged N-TIMP-3 (N-terminal domain of TIMP-3) (domain or fragment, UniProt P35625 24-143, looked up) CTCSPSHPQDAFCNSDIVIRAKVVGKKLVKEGPFGTLVYTIKQMKMYRGFTKMPHVQYIHTEASESLCGLKLEVNKYQYLLTGRVYDGKMYTGLCNFVERWDQLTLSQRKGLNYRYHLGC , thanks.
8.25

Also need FLAG-tagged TIMP-3 (natural protein, UniProt P35625 24-211, looked up, also called T3; [35S]TIMP-3) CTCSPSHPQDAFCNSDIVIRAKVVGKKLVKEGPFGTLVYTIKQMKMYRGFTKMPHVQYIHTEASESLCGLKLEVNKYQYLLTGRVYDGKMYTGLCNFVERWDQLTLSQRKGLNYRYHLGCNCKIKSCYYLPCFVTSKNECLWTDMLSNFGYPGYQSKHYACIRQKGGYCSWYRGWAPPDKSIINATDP , thanks.
8.77
